These measurements were taken from BindingDB's records for doi:10.1016/j.bmc.2015.01.060.

- Target of assay: 5-hydroxytryptamine receptor 2B (Homo sapiens, UniProt P41595)
- Sequence (P41595 whole entry): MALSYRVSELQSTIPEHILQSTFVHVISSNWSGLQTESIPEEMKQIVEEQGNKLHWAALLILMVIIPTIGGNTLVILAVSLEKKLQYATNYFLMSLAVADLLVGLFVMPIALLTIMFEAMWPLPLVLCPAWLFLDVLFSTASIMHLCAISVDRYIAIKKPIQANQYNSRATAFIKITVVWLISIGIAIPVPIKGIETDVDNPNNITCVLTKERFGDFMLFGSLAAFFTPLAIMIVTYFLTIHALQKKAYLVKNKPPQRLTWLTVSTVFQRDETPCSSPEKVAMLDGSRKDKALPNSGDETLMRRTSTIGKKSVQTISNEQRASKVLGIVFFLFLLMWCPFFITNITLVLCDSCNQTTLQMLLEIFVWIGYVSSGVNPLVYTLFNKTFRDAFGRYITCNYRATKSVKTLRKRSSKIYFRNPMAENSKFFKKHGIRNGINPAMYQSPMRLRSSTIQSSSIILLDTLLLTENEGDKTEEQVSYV
- Measurement protocol: Displacement of [3H]Mesulergine from human 5-HT2B receptor expressed in HEK293 cells by scintillation counting analysis
Readout label: Ki (µM)
State just the number; it will be interpreted in µM.

Which Ki value belongs to CN(C)[C@H]1Cc2ccccc2[C@H](c2ccc([N+](=O)[O-])cc2)C1 ? 4.1
